Documented % reduction by NI (nitrate-N) across a set of compounds
Tested on: nitrification in the soil
Assay: Laboratory soil incubation, Templeton sandy loam with synthetic cow urine, nitrate-N
Run Parameters: 1 kg/ha, vs urine alone, 30 days
Just the number please, in %, no unit attached.

| Compound | System Name | % reduction by NI (nitrate-N), % |
| --- | --- | --- |
| C#Cc1cncnc1 | nitrification in the soil | 97 |
| C#Cc1ccc(OC)cn1 | nitrification in the soil | 97 |
| C#Cc1ncccn1 | nitrification in the soil | 98 |
| C#Cc1ccc[n+]([O-])c1 [3-ethynylpyridine 1-oxide] | nitrification in the soil | 96 |

Alright, here's another compound for you.
Query block: // lookup % reduction by NI (nitrate-N) for C#Cc1cccnn1
Result block: 98

----------
Tested on: nitrification in the soil
Assay: Laboratory soil incubation, Templeton sandy loam with synthetic cow urine, nitrate-N
Run Parameters: 2 kg/ha, vs urine alone, 30 days
Description: A Templeton sandy loam was used in this experiment. 500 g of soil (dry weight basis) was packed into a pottle. […] Soil samples were collected and were then thoroughly mixed and subsamples were extracted in a potassium chloride solution and analysed for mineral-N. Soil moisture content was also determined. […]
Measured Attribute: % reduction by NI (nitrate-N) (%)
Report the figure in % without appending any unit label.

| Compound | Measured Attribute | Assay Value |
| --- | --- | --- |
| C#Cc1ncccn1 | % reduction by NI (nitrate-N) | 84 |
| C#Cc1cccnn1 | % reduction by NI (nitrate-N) | 95 |
| C#Cc1cncnc1 | % reduction by NI (nitrate-N) | 84 |
| C#Cc1ccc[n+]([O-])c1 [3-ethynylpyridine 1-oxide] | % reduction by NI (nitrate-N) | 97 |

Now for the compound whose % reduction by NI (nitrate-N) we want.
Query block: Request the reported % reduction by NI (nitrate-N) associated with C#Cc1ccc(OC)cn1
Result block: 78

----------
# melting point per record follows

Reference set (3 entries):
| Chemical String | Measured Attribute | Assay Value |
| --- | --- | --- |
| C#Cc1ncc(OC)cn1 | melting point | 56.2 to 57.2 °C |
| C#Cc1cnc(OC)cn1 | melting point | 41.3 to 42.7 °C |
| C#Cc1cnc(OC)nc1 | melting point | 82.3 to 83.1 °C |

Now turn to the next compound.
Query block: I'd like to know its melting point. The compound in question is C#Cc1ccc(OC)nn1
Result block: 51.7 to 53.1 °C
